The entries below are paired with their reported viability index.
- Test system: Plasmodium falciparum NF54 stage V gametocytes;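 also: Saponin-lysis sexual stage assay in serum-free medium: MitoTracker Red CMXRos staining plus saponin, high-content imaging, particle count per well divided by plate mean of DMSO wells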
- procedure.summary: viability index relative to DMSO control (fraction); higher = less gametocyte killing
- measurement.setup: 1.25 µM, incubation time: 72 h
In all, about 3,600 compounds were measured (“viability index relative to DMSO control”: median about 0.81, lowest 2% from about 0.13 on). This excerpt belongs to a sample that is enriched for the lowest values.
Lab note: jot down the number only; don't add units.

C=CCOC(=O)C1=C(C)N2CCSC2=C(C#N)C1c1ccco1 (stereo not drawn) : 1.13
CC(C)=CCCC(C)=CCCC(C)NCCN1CCNCC1 (stereo not drawn) : 0.135
Cc1c2ccccc2cc(Cc2ccccc2)[n+]1C : 0.76

Q: Fill in the blank: the reported viability index of Cc1cc2nc(NC(=N)N)nc(C)c2cc1C is ____.
Result: 0.718

Q: Fill in the blank: the reported viability index of CCN(CC)c1ccc(N=Cc2ccc(Sc3nc4ccccc4s3)o2)cc1 is ____.
Result: 1.17

Q: Fill in the blank: the reported viability index of COc1cncc(-c2cncc(-c3ccc(Oc4ccccc4)cc3)n2)c1 is ____.
Result: 0.899

Q: Fill in the blank: the reported viability index of CCOC(=O)c1c(NC(=O)Cc2ccc([N+](=O)[O-])cc2)sc2c1CCCC2 is ____.
Result: 1.02
